Entries annotated with measured phosphorylation enrichment
# Test system: c-Src
# protocolText: phosphorylation enrichment, bacterial display (enrichment ratio); higher = better substrate or ligand; peptides without Tyr show the background;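 further: 11-residue human phosphosite peptides and single-mutation variants displayed on the E. coli surface, counted by deep sequencing, each peptide's frequency after selection divided by its frequency in the unselected input library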;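 further: frequency after pTyr selection over input frequency; kinase dosed for 20-30% of maximal phosphorylation in three min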
Write no unit; give the number alone.

Below: 8 sequences and their reported phosphorylation enrichment.
DRLAVYIDRVS [LMNA_Y45_R50S]    0.311
ADSLRYIFPKL [EIF2B3_Y92_YF]    0.457
ERPIRYLNHQL [CEP152_Y268_Q265P]    0.46
HLVSEYQQFQD [TUBB3_Y422_D417H_YF]    0.728
HNVAIYEGFAL [ACTC1_Y168_P166A_YF]    9.03
FQLPFYNMVPS [BMPR1A_Y458_YF]    1.06
TSFSGYRCHRH [NKAPL_Y94_Y96C_YF]    0.414
QNVADYMRCLM [RPL5_Y207_Y210C]    0.444

[in] Tell me phosphorylation enrichment reported for DVELLYPVKEK [EPHX1_Y283]
[out] 0.452

[in] Tell me phosphorylation enrichment reported for SGSWSYNTSTE [SELE_Y24_A21S]
[out] 0.503

[in] Tell me phosphorylation enrichment reported for ILLAGCLVMVI [SLC28A3_Y113_Y113C]
[out] 0.475

[in] Tell me phosphorylation enrichment reported for LTQRTYMLENA [GPAA1_Y49_S51L]
[out] 0.479

[in] Tell me phosphorylation enrichment reported for QSHKVYVQHLL [POR_Y604]
[out] 0.618

[in] Tell me phosphorylation enrichment reported for FGYPGYQSKHY [TIMP3_Y177]
[out] 0.534

----------
# target: Fes (UniProt P07332)
# Sequence (P07332 whole entry, looked up): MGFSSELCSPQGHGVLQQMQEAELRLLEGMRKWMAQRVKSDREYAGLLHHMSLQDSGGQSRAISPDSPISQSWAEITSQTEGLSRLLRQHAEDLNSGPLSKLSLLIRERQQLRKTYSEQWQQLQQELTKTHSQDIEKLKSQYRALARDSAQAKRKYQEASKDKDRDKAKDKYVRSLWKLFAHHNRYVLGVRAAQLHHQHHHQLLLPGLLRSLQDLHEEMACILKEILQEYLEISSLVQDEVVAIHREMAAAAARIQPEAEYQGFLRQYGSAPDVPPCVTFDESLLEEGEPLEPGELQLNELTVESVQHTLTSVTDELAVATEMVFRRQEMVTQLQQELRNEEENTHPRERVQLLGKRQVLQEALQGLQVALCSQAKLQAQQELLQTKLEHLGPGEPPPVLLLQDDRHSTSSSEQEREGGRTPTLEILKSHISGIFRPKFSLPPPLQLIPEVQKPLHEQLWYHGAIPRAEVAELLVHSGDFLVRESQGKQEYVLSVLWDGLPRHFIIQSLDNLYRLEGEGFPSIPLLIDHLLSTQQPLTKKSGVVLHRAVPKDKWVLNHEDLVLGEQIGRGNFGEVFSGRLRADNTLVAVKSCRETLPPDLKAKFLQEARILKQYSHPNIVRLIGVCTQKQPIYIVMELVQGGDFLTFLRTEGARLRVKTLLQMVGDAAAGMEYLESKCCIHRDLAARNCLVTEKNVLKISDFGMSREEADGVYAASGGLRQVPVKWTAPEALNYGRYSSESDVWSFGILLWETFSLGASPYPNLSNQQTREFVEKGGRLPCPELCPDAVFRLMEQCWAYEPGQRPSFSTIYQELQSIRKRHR
# protocolText: phosphorylation enrichment, bacterial display (enrichment ratio); higher = better substrate or ligand; peptides without Tyr show the background
Classify by measured phosphorylation enrichment: class 1 if it is equal to or exceeds 1, class 0 if it is smaller.

Consider the worked cases shown below.
RLYARYFQGDL [PDK3_Y337]    class 1
DGQVNYEELVQ [CALM1_Y139_F142L]    class 1
ASKEPYYVRCI [MYO1D_Y585]    class 1
RSFLSYYTSHV [NEFL_Y442_P440L]    class 0
ALAHKYQGGGG [HBB_Y146_H147Q]    class 0
DAGTDYVGISC [FREM2_Y2061_R2066C]    class 0

[in] Decide: is the reported value of phosphorylation enrichment for FDDIAYIRKNL [PIK3CA_Y1021_T1025N] equal to or greater than 1?
[out] class 0

----------
# target: Jak2 (UniProt O60674)
# Sequence (O60674 whole entry, looked up): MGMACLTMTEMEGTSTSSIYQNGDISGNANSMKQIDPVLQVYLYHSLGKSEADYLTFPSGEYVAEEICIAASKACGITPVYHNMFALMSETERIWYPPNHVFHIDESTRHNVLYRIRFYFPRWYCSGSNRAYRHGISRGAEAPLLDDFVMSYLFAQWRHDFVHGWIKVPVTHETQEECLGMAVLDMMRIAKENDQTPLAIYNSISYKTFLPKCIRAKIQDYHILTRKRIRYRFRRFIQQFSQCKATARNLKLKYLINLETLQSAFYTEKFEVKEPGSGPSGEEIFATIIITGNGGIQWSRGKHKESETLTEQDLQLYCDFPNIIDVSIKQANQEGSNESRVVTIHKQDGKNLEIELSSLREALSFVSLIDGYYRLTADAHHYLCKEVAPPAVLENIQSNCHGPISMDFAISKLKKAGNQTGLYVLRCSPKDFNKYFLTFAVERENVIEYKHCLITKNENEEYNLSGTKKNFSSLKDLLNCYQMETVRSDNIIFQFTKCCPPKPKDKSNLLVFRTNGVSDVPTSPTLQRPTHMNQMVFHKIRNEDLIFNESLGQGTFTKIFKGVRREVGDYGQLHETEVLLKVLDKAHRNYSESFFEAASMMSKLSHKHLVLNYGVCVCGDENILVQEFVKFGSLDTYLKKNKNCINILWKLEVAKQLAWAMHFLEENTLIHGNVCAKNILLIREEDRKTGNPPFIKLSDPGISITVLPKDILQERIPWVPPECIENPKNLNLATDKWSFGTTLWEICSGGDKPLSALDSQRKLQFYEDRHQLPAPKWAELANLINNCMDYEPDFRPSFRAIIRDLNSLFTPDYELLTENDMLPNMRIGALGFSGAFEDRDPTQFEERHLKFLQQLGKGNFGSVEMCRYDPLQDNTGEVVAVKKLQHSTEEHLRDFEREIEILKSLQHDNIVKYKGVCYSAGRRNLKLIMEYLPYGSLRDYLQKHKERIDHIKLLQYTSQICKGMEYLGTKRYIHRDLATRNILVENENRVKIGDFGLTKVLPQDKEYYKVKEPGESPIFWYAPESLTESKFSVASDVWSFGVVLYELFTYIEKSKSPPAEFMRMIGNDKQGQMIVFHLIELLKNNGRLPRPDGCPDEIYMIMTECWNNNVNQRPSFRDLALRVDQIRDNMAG
# protocolText: phosphorylation enrichment, bacterial display (enrichment ratio); higher = better substrate or ligand; peptides without Tyr show the background
Entries annotated with measured phosphorylation enrichment
Write no unit; give the number alone.

TKGMIYGGGGG [PSME1_Y249]    0.501
LARDMDDKEYY [MET_Y1230_Y1230D]    1.37
KNKNRCKNILP [PTPN11_Y279_Y279C]    1.48
LTQRTYMLENA [GPAA1_Y49_S51L]    0.64

[in] Tell me phosphorylation enrichment reported for SHSMRYFDTSV [HLA-C_Y31_A35S]
[out] 0.543

[in] Tell me phosphorylation enrichment reported for METKGYHSLPE [NR3C2_Y6]
[out] 0.804

[in] Tell me phosphorylation enrichment reported for AKGMKYVASKK [MET_Y1194_L1195V]
[out] 0.5

[in] Tell me phosphorylation enrichment reported for AFLEDYFTSTK [SRC_Y522_E527K]
[out] 1.26

[in] Tell me phosphorylation enrichment reported for RTESQYQENRG [LRCH3_Y354_R350T]
[out] 1.26

[in] Tell me phosphorylation enrichment reported for ASTDYNKRGDF [PDHA1_Y243_Y243N]
[out] 0.468

[in] Tell me phosphorylation enrichment reported for LDAFIYNAAVL [GRIN2A_Y730_D731N]
[out] 0.874

[in] Tell me phosphorylation enrichment reported for EASEQHLTKAS [NRCAM_Y739_Y739H]
[out] 0.692

[in] Tell me phosphorylation enrichment reported for EFLHKYKGFKI [SYNE1_Y6953_Q6951H_YF]
[out] 0.667

Entry source: the supplement of paper PMC10065799
